experiment.description: modulators of HCV replicon luciferase signal, primary screen, HCV replication inhibitor project, Huh7 cells, luciferase reporter (AID 1109);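 note: huh7 hepatoma cells harbouring a luciferase neomycin HCV replicon reporter; luciferase luminescence as measure of HCV replicon replication; test concentration not given here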
assay.context: 48 h, higher = more signal
Would you kindly list z-score for each of these compounds?
One number for each entry.

{"compound": "COc1ccc(NN2C(C(O)c3ccccc3)C=CC3C(=O)N(C4CCCCC4)C(=O)C32)cc1 (centres undefined)", "z-score": -0.888}
{"compound": "COC(=O)[C@@]1(Cc2ccc(F)cc2)[C@H]2c3cc(C(=O)N(C)C)n(CCF)c3C[C@H]2CN1C(=O)c1ccccc1", "z-score": -1.38}
{"compound": "C=C(CC1([C@@H](NP(=O)(c2ccccc2)c2ccccc2)[C@H]2C[C@@H]2CCCC)CC1)c1cccc(OC)c1", "z-score": -1.79}

Exercise: Report z-score for Cc1ccc(S[C@]2(C(=O)NCC(C)C)CC(=O)N(C(C)C)[C@@H]2c2ccc(CO)cc2I)cc1 please.
Key: -0.98

* * *

Would you kindly list composite z-score for each of these compounds?
target.entity: Calmodulin-1 (Homo sapiens) (UniProt P0DP23)
experiment.description: CALM1 binders on microarrays, EGTA buffer, profiling panel, biochemical, small-molecule microarray, Cy5-labelled CALM1 (AID 1111);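 note: labelled calmodulin applied in Tris saline Tween buffer holding calcium plus EGTA and DTT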
assay.context: Cy5-CALM1 binding fluorescence, higher = more signal
One number for each entry.

Items follow; give composite z-score for each.
1. [N-]=[N+]=Nc1ccccc1C[C@@]1(C(=O)NCc2ccccc2)N=C(c2ccc(OCCCO)cc2)O[C@@H]1c1ccccc1
2. C=CC[C@]1(C(=O)NCCN2CCOCC2)N=C(c2ccc(OCCCO)cc2)O[C@H]1c1ccccc1
3. COc1c(C)cc(-c2cc3c(c(CCc4ccccc4)n2)[Si](C(C)C)(C(C)C)O[C@H]3c2ccccc2)cc1C
4. [N-]=[N+]=NCc1ccccc1C[C@@]1(C(=O)NCCN2CCOCC2)N=C(c2ccc(OCCCO)cc2)O[C@@H]1c1ccccc1

Key:
1.41
0.0631
0.261
1.26

Items follow; give composite z-score for each.
1. Cc1cccc([C@H]2C[C@H]3C(Br)=C[C@@]2(CO)C(=O)[C@]32CO2)c1
2. C[C@]12C(=O)N(CCO)[C@@H]3C(=O)N(c4ccc(Cl)cc4)CC=CC31O[C@@H]1/C=C\CCCOC(=O)C12 (stereo not given in full)
3. COc1ccc([Si](C)(C)[C@H]2[C@H](CC(=O)N(CCO)Cc3ccccc3)O[C@@]3(C(=O)N(c4ccccc4)c4ccccc43)[C@@H]2C)cc1
4. COc1ccc(C#Cc2ccc3c(c2)[C@]2(C(=O)N3)[C@H](c3ccccc3OCCO)N3[C@H](c4ccccc4)[C@H](c4ccccc4)OC(=O)[C@H]3[C@@H]2C(=O)NC[C@H](O)c2ccccc2)cc1
5. O=C1NC(=O)C2C1C=CC(C(O)C1CCCCC1)N2Nc1ccccn1 (stereo not given)
6. C=C(C(=O)CC[C@H](OC(=O)c1ccccc1-c1ccccc1C(=O)O)c1ccc(OCCO)cc1)C(C)C
7. CO[C@H]1O[C@H](CO)[C@@H](OC(=O)Nc2cccc(F)c2)[C@H](OC(=O)c2cc3ccccc3[nH]2)[C@H]1OC(=O)c1cc2ccccc2[nH]1
8. Cc1ccc(S(=O)(=O)N2[C@@H](c3ccccc3)C(C(=O)O)=C[C@H]2C(C)(C)C)cc1

Key:
1: -0.496; 2: 0.409; 3: 0.503; 4: 1.11; 5: 0.5; 6: 0.275; 7: 0.681; 8: 2.24

Items follow; give composite z-score for each.
1. CC[C@@H]1C=C(C(=O)O)[C@H](c2cccc(Cl)c2)N1S(=O)(=O)c1ccc(C)cc1
2. COc1cc2c(cc1OC)CN(C(=O)[C@@H]1[C@H]3C(=O)O[C@H](c4ccccc4)[C@H](c4ccccc4)N3[C@H](c3ccc(O)cc3)[C@@]13C(=O)Nc1ccc(C#CC4=CCCCC4)cc13)CC2

Key:
0.875
1.07

Exercise: Report composite z-score for CC1CC/C=C\[C@H]2OC34C=CCN(C(C)C)C(=O)[C@H]3N(C(C)CO)C(=O)[C@@H]4C2C(=O)O1 (stereo not given in full) please.
Key: -0.174
